- ASSAY DETAILS: in vitro
- COND: human, hela cells, % viability

| COMPOUND | UNITS OF MEASURE | viability at 28.5 h, 10 µM |
| --- | --- | --- |
| O=C(Nc1cccnc1)c1cccc(S(=O)(=O)N2CCCC2)c1 [CBK269846] | % | 93.3 |
| Cc1ccc(CCNC(=O)c2snnc2C)cc1C [CBK282051] | % | 89.6 |
| Cc1noc(C)c1NC(=O)c1ccno1 [CBK200394] | % | 87 |
| Clc1ccc(-n2ncc(-c3cccnc3)n2)cc1Cl [CBK112814] | % | 101 |
| COc1ccc(C)cc1NC(=O)N1CCC2(CC1)CC(=O)c1ccc(C)cc1O2 [CBK166520] | % | 91.4 |
| Cc1[nH]c2cccc(C(=O)N3CCCCC3CCNC(=O)c3ccccc3)c2c1C (stereo not drawn) [CBK285976] | % | 82 |

----------
- ASSAY DETAILS: in vitro
- COND: human, hela cells, % viability
Quick list: viability at 28.5 h, 10 µM per entry.

| COMPOUND | viability at 28.5 h, 10 µM, % |
| --- | --- |
| O=C(C1COc2ccccc2O1)N(Cc1cccnc1)c1nc2c(F)cccc2s1 (stereo not shown) | 91 |
| CCC1CCCCN1C(=O)c1ccnc(C)c1 (stereo not shown) | 91.3 |
| COc1cc(S(=O)(=O)NCc2ccncc2)c(C)cc1C | 91.8 |
| CC1CCc2c(sc3ncnc(NC4CCN(CC(N)=O)CC4)c23)C1 (stereo not shown) | 91.7 |

----------
- ASSAY DETAILS: in vitro
- COND: human, hela cells, % viability
PARAMETER: viability at 28.5 h, 10 µM (%)

| COMPOUND | PARAMETER | UNITS OF MEASURE | MEASURED RESULT |
| --- | --- | --- | --- |
| CC(C)(C)OC(=O)N1CCN(CCn2cc(C(=O)O)nn2)CC1 | viability at 28.5 h, 10 µM | % | 86.8 |
| COC(=O)c1sc2cc(C(F)(F)F)cnc2c1NC(=O)C1COc2ccccc2O1 (stereo not drawn) | viability at 28.5 h, 10 µM | % | 107 |
| Cc1cc(C)c(S(=O)(=O)N2CCC(C(=O)Nc3ccc(C(N)=O)cc3)CC2)c(C)c1 | viability at 28.5 h, 10 µM | % | 91.7 |

----------
- ASSAY DETAILS: in vitro
- COND: human, hela cells, % viability

| COMPOUND | viability at 28.5 h, 10 µM (%) |
| --- | --- |
| CN1CCC(NC(=O)c2cc3ccccc3[nH]2)CC1 | 88.3 |
| CS(=O)(=O)c1nc2cccnc2s1 | 95.2 |
| CC1=CC(=O)OC1(O)c1ccc(Br)cc1 (stereo not drawn) | 91.6 |
| CCN(CC(=O)NCc1ccc(F)cc1)C(=O)c1cc(C#N)c[nH]1 | 87.9 |
| O=C(C1=C(O)C(=O)N(CCN2CCOCC2)C1c1cccnc1)c1ccco1 (stereo not drawn) | 97.4 |
| Nc1ccc2c(-c3cc(F)cc(F)c3)ccnc2n1 | 93.4 |
| Cc1ccc(C(=O)N2CCC(Cc3ccccc3-c3ccccc3)(C(=O)N(C)C)CC2)s1 | 107 |
| Cn1c(=O)sn(-c2ccccc2)c1=O | 115 |
| CCC1CCCCN1C(=O)C1CCCCC1 (stereo not drawn) | 90 |
| Cc1ccc(Oc2ccc3c(c2)C(=O)N(CC(=O)O)C3=O)cc1 | 91.4 |
| O=C(Cn1cccc(C(=O)Nc2ccc(F)cc2)c1=O)Nc1nc2c(s1)CCCCC2 | 84.7 |
| CS(=O)(=O)N1CCC(C(=O)NC(c2ccccc2)c2ccccc2)CC1 | 77.8 |
| CN(C)CCSc1nc2cc(Cl)ccc2o1 [CBK266337C] | 96.6 |
| COc1ccc(CN(C(=O)c2cccc(-n3cnnn3)c2)C2CC2)cc1 | 91.6 |
| COc1ccc(CCCC(=O)n2c(=O)n(CCc3c[nH]c4ccccc34)c3ccccc32)cc1 | 91.3 |
| COc1ccccc1C1CC(c2ccccc2)=NN1C(=O)CCC(=O)O (stereo not drawn) | 83.4 |
| COCCN(Cc1cc2ccc(C)cc2nc1O)C(=O)c1cccs1 | 100 |
| COC(=O)c1cc(C)sc1NC(=S)Nc1ccccc1[N+](=O)[O-] | 99.9 |
| Cc1nnc2sc(-c3ccc(NC(=O)CSc4ccc(Cl)cc4)cc3)nn12 | 108 |
| CS(=O)(=O)NC1c2cccc3cccc(c23)C1N1CCOCC1 (stereo not drawn) | 102 |
| CCN(CCC(F)(F)F)C(=O)Cc1csc(NC(=O)c2ccoc2C)n1 | 83.3 |
| CCn1cc(C(=O)N2CCCC2c2nc3ccccc3[nH]2)cn1 (stereo not drawn) | 109 |
| Cc1nn(C)c(Cl)c1S(=O)(=O)NCCc1c[nH]c2ccccc12 | 85.2 |
| COc1ccc(NC(=O)Cc2csc(NC(=O)c3ccco3)n2)c(OC)c1 | 91.7 |
| O=[N+]([O-])c1ccc(S(=O)(=O)Nc2nnc(Cc3ccc(Cl)cc3)s2)cc1 | 93.2 |
| Cc1c(C)c2c(O)n(-c3ccccc3)nc2[nH]c1=O | 89.3 |
| COc1cc(Nc2cncc(-c3cccnc3)n2)cc(OC)c1OC | 93.7 |
| Cc1nnc(C(C)Sc2nnc(N3CCC(C)CC3)n2Cc2ccco2)o1 (stereo not drawn) | 96.6 |
| O=C(O)c1cccc(Sc2nc3cc(Cl)c(Cl)cc3nc2N2CCCC2)c1 | 118 |
| COc1ccc(COc2nc3c(c(=O)n(C)c(=O)n3C)n2Cc2ccc(Cl)c(Cl)c2)cc1 | 91.3 |
| COc1ccc(-c2ccc(/C=N/N=C3\NC(=O)C(CC(=O)O)S3)o2)c([N+](=O)[O-])c1 (stereo not drawn) | 102 |
| O=C(CCNS(=O)(=O)c1ccc(Cl)cc1)Nc1ccncc1 | 99.4 |
| CN(CCc1ccncc1)C(=O)c1cc2ccc(F)cc2[nH]1 | 81.3 |
| COc1ccccc1-c1ncc(OCCN2CCOCC2)nc1N | 113 |
| COc1ccc(C2CC(c3nc4ccccc4[nH]3)=NN2C(=O)CCN2CCCCC2)cc1 (stereo not drawn) | 99.8 |
| COc1ccc(C(=O)Nc2ccc(CC(=O)O)cc2)cc1 | 95 |
